Attribution: patent US6444617B1

tested on: wheat (Wh); assay: Test Example 3: phytotoxicity to upland crop plants, treatment before emergence; format: in vivo; conditions: dosage 5 kg/ha
Quick reference: Phytotoxicity Wh of the listed items.
ATTRIBUTE MEASURED: Phytotoxicity Wh

1) CCc1ccc(Cl)c(CC)c1NC(=O)c1cc2cc(OC)ccc2nc1C(=O)NOC(C)C ... 1 (Crop-killing rate is 1-39%.)
2) Cc1c(Cl)cccc1NC(=O)c1cc2sccc2nc1C(=O)NC1CCCC1 ... 4 (Crop-killing rate is 90-99%.)
3) CCCNC(=O)c1nc2cc(F)ccc2cc1C(=O)Nc1c(CC)ccc(Cl)c1CC ... 4 (Crop-killing rate is 90-99%.)
4) CCCNC(=O)c1nc2c(cc1C(=O)Nc1c(CC)ccc(Cl)c1CC)CSCC2 ... 5 (Crop-killing rate is 100%.)

* * *

tested on: soybean plant; assay: Test Example 4: phytotoxicity to upland crop plants, treatment after emergence; assay type: in vivo; settings: dosage 5 kg/ha, sprayed after emergence, judged 14 days after treatment
ATTRIBUTE MEASURED: Phytotoxicity So

1) CCc1ccc(Cl)c(CC)c1NC(=O)c1nc2ccccc2nc1C(=O)NCC(C)(C)C ... 4 (Crop-killing rate is 90-99%.)
2) CCCNC(=O)c1nc2c(cc1C(=O)Nc1c(CC)ccc(Cl)c1CC)COCC2 ... 5 (Crop-killing rate is 100%.)
3) CCCNC(=O)c1nc2c(cc1C(=O)Nc1cccc(Cl)c1C)OCCC2 ... 4 (Crop-killing rate is 90-99%.)
4) CCCNC(=O)c1nc2onc(C)c2cc1C(=O)Nc1c(CC)ccc(Cl)c1CC ... 4 (Crop-killing rate is 90-99%.)

* * *

system: cocklebur (Xanthium strumarium L.), Xs; test: Test Example 4: herbicidal effect on upland weeds after emergence; format: in vivo; settings: dosage 5 kg/ha; sprayed after emergence; judged 14 days after treatment
ATTRIBUTE MEASURED: Herbicidal effect Xs

1. CCc1ccc(Cl)c(CC)c1NC(=O)c1cc2ccccc2nc1C(=O)NC1CCCC1 [359-6] ... 5 (Weed-killing rate is 100%.)
2. CCc1ccc(Cl)c(CC)c1NC(=O)c1cc2c(nc1C(=O)NC1CCCC1)COCC2 [compound 447] ... 5 (Weed-killing rate is 100%.)
3. CCCNC(=O)c1nc2ccccc2nc1C(=O)Nc1cccc(Cl)c1C [compound 1318] ... 4 (Weed-killing rate is 90-99%.)
4. CCc1ccc(Cl)c(CC)c1NC(=O)c1cc2cc(OC)ccc2nc1C(=O)NOC(C)C [compound 291] ... 4 (Weed-killing rate is 90-99%.)
5. CCCNC(=O)c1nc2ncccc2cc1C(=O)Nc1cccc(Cl)c1C [compound 375] ... 5 (Weed-killing rate is 100%.)
6. Cc1c(Cl)cccc1NC(=O)c1cc2c(nc1C(=O)NCC(C)C)SCCC2 [compound 527] ... 4 (Weed-killing rate is 90-99%.)
7. CCNC(=O)c1nc2ccccc2nc1C(=O)Nc1c(CC)ccc(Cl)c1CC [compound 1305] ... 5 (Weed-killing rate is 100%.)
8. CCNC(=O)c1nc2occc2cc1C(=O)Nc1c(CC)ccc(Cl)c1CC [compound 774] ... 5 (Weed-killing rate is 100%.)
9. Cc1c(Cl)cccc1NC(=O)c1cc2c(C)noc2nc1C(=O)NC1CCCC1 [compound 1085] ... 5 (Weed-killing rate is 100%.)
10. CCc1ccc(Cl)c(CC)c1NC(=O)c1nc2ccccc2nc1C(=O)NC1CCCC1 [compound 1315] ... 5 (Weed-killing rate is 100%.)
11. CCNC(=O)c1nc2ccn(OC)c2cc1C(=O)Nc1c(CC)ccc(Cl)c1CC [compound 894] ... 4 (Weed-killing rate is 90-99%.)
12. CCCNC(=O)c1nc2c(cc1C(=O)Nc1c(CC)ccc(Cl)c1CC)COCC2 [Compound No. 462] ... 5 (Weed-killing rate is 100%.)
13. Cc1c(Cl)cccc1NC(=O)c1nc2ccccc2nc1C(=O)NC1CCCC1 [compound 1327] ... 4 (Weed-killing rate is 90-99%.)
14. Cc1c(Cl)cccc1NC(=O)c1cc2sccc2nc1C(=O)NC1CCCC1 [compound 892] ... 4 (Weed-killing rate is 90-99%.)
15. CCc1ccc(Cl)c(CC)c1NC(=O)c1nc2ccccc2nc1C(=O)NCC(C)(C)C [compound 1314] ... 4 (Weed-killing rate is 90-99%.)
16. CCCNC(=O)c1nc2c(cc1C(=O)Nc1c(CC)ccc(Cl)c1CC)nc(C)n2C [compound 1294] ... 5 (Weed-killing rate is 100%.)
17. CCCNC(=O)c1nc2scc(Br)c2cc1C(=O)Nc1c(CC)ccc(Cl)c1CC [compound 814] ... 4 (Weed-killing rate is 90-99%.)
